experiment-notes: Kinetic profiles of administered and generated stereoisomers in brain, CSF and plasma of rats after oral administration
Type: in vivo, male Sprague-Dawley (SD) rats
details: male, Sprague-Dawley, po; administered stereoisomer, 20 mg/kg p.o. of the same compound, rat plasma, mean ± SEM; read-out: AUC0-180 min, plasma (converted)
assay-metric: AUC(0-t) (ng·h/mL)

[[record]]
compound = "CC[C@H]1CN2CC[C@@]3(C(=O)Nc4ccccc43)[C@@H]2C[C@@H]1/C(=C\\OC)C(=O)OC [IRN, Isorhynchophylline]"
value_reported = 41.4

[[record]]
compound = "CC[C@H]1CN2CC[C@]3(C(=O)Nc4ccccc43)[C@@H]2C[C@@H]1/C(=C\\OC)C(=O)OC [RN, rhynchophylline]"
value_reported = 273


====

experiment-notes: Kinetic profiles of administered and generated stereoisomers in brain, CSF and plasma of rats after oral administration
Type: in vivo, male Sprague-Dawley (SD) rats
details: male, Sprague-Dawley, rat, CSF (relative to plasma), po; administered stereoisomer, 20 mg/kg p.o.; AUCCSF/AUCPlasma; read-out: Kp,CSF (CSF-to-plasma partition coefficient)
assay-metric: Kp

[[record]]
chem_smiles = "CC[C@H]1CN2CC[C@@]3(C(=O)Nc4ccccc43)[C@@H]2C[C@@H]1/C(=C\\OC)C(=O)OC"
value_reported = 0.0821

[[record]]
chem_smiles = "CC[C@H]1CN2CC[C@]3(C(=O)Nc4ccccc43)[C@@H]2C[C@@H]1/C(=C\\OC)C(=O)OC"
value_reported = 0.0453


====

experiment-notes: Kinetic profiles of administered and generated stereoisomers in brain, CSF and plasma of rats after oral administration
Format: in vivo, male Sprague-Dawley (SD) rats
details: male, Sprague-Dawley, po; administered stereoisomer, 20 mg/kg p.o., rat plasma; read-out: t 1/2, plasma
assay-metric: half-life (h)

[[record]]
chem_smiles = "CC[C@H]1CN2CC[C@]3(C(=O)Nc4ccccc43)[C@@H]2C[C@@H]1/C(=C\\OC)C(=O)OC"
value_reported = 2.16

[[record]]
chem_smiles = "CC[C@H]1CN2CC[C@@]3(C(=O)Nc4ccccc43)[C@@H]2C[C@@H]1/C(=C\\OC)C(=O)OC"
value_reported = 1.07


====

experiment-notes: Kinetic profiles of administered and generated stereoisomers in brain, CSF and plasma of rats after oral administration
Format: in vivo, male Sprague-Dawley (SD) rats
details: male, Sprague-Dawley, rat, plasma, po, 20 mg/kg, administered stereoisomer, 20 mg/kg p.o., rat plasma
assay-metric: Tmax

[[record]]
chem_smiles = "CC[C@H]1CN2CC[C@@]3(C(=O)Nc4ccccc43)[C@@H]2C[C@@H]1/C(=C\\OC)C(=O)OC"
value_reported = "≤ 30 min"

[[record]]
chem_smiles = "CC[C@H]1CN2CC[C@]3(C(=O)Nc4ccccc43)[C@@H]2C[C@@H]1/C(=C\\OC)C(=O)OC"
value_reported = "≤ 30 min"


====

experiment-notes: Kinetic profiles of administered and generated stereoisomers in brain, CSF and plasma of rats after oral administration
Format: in vivo, male Sprague-Dawley (SD) rats
details: male, Sprague-Dawley, rat, brain (relative to plasma), po; administered stereoisomer, 20 mg/kg p.o.; AUCBrain/AUCPlasma; read-out: Kp,Brain (brain-to-plasma partition coefficient)
Quick reference: Kp of the listed items.
assay-metric: Kp

[[record]]
compound = "CC[C@H]1CN2CC[C@]3(C(=O)Nc4ccccc43)[C@@H]2C[C@@H]1/C(=C\\OC)C(=O)OC [RN, rhynchophylline]"
assay_metric = "Kp"
value_reported = 0.0967

[[record]]
compound = "CC[C@H]1CN2CC[C@@]3(C(=O)Nc4ccccc43)[C@@H]2C[C@@H]1/C(=C\\OC)C(=O)OC [IRN, Isorhynchophylline]"
assay_metric = "Kp"
value_reported = 0.253


// data source = paper PMC6377964
